# TESTED ON: SARS-CoV-2 3CL protease (Severe acute respiratory syndrome coronavirus 2, UniProt P0DTD1)
# Assay type: biochemical
# Parameters: unit not given here
# EXPERIMENTAL PARAMETERS: Conc 50 µM; mean response (inhibition) of dose-response curve
MEASUREMENT LABEL: Avg
Give bare numbers.

Would you mind giving Avg for every compound in the list below?
1. CC1C(=O)Nc2ccc(C(=O)CCl)cc21 (stereo not shown) [Z94598687]
2. CSc1cc(C(=O)CCl)ccc1NC(C)=O [Z449369022]
3. C=CS(=O)(=O)c1nc2ccccc2s1 [Z3228044564]
4. O=C(CCl)COc1ccc(Cl)cc1 [Z3236282166]
5. N#Cc1ccnc(S)c1 [Z2687203952]
6. Cc1ccccc1CN1CCCN(C(=O)CCl)CC1 [Z2651952322]
7. O=C(CCl)N1CCc2[nH]c3ccccc3c2C1 [Z398556976]
8. Cc1cnc(=S)[nH]c1 [Z2768165643]

61.2
67.6
103.1
98.6
111.2
62.8
93.9
106.7

I need Avg for every entry listed below, if you could help.
1. CN(c1ccc(C(=O)CCl)cc1)S(C)(=O)=O [Z57982062]
2. Cc1ccc(CNC(=O)n2ccnc2)cc1 [Z295462498]
3. Cc1cc(C(=O)CCl)c(C)n1-c1nccs1 [Z56979277]
4. N#Cc1ccc(S)nc1 [Z367678594]
5. CN(C)C(=O)c1csc(C(=O)CCl)c1 [Z3244705145]

[79.8, 84.1, 95.6, 107.9, 58.7]

---

# TESTED ON: SARS-CoV-2 3CL protease (Severe acute respiratory syndrome coronavirus 2, UniProt P0DTD1)
# Assay type: biochemical
# Design: unit not given here
# EXPERIMENTAL PARAMETERS: Conc 15 µM
Classify by measured Avg: criterion met if it is equal to or exceeds 20, criterion not met if it is smaller.

A selection of reference data follows.
# COMPOUND, CLASS ASSIGNMENT
measured = [
    ("CCC(=O)N1CCC(NC(=O)c2cccnc2S)C1 (stereo not drawn)", "criterion met"),
    ("O=C(NCCC(O)c1ccccc1)c1cccnc1S (stereo not drawn)", "criterion not met"),
    ("O=C(NCc1ccc(F)c(CO)c1)c1cccnc1S", "criterion met"),
]

# bool: Avg of COC1(CNC(=O)c2cccnc2S)CCOCC1 >= 20 criterion not met

---

# TESTED ON: SARS-CoV-2 3CL protease (Severe acute respiratory syndrome coronavirus 2, UniProt P0DTD1)
# Assay type: biochemical
# EXPERIMENTAL PARAMETERS: 100 µM compound
MEASUREMENT LABEL: Inhibition at 100 µM

# COMPOUND, Inhibition at 100 µM
rows = [
    ("NC(=O)CCc1ccc(C(=O)CCl)cc1", "88%"),
    ("N#Cc1ccc(S)nc1", "100%"),
    ("Cc1nc(CCNC(=O)c2cccnc2S)sc1C", "100%"),
    ("NS(=O)(=O)c1ccc(S)nc1", "100%"),
    ("O=C(NCC1(O)CCc2ccccc21)c1cccnc1S (stereo not shown)", "82%"),
]

Each of the following entries comes with a recorded value; kindly state Inhibition at 100 µM for each.
1. O=C(c1ccc(S)nc1)N1CCCC1
2. N#C/C=C/S(=O)(=O)c1ccc(Cl)cc1

1. 100%
2. 95%
